# Vd annotations
- Protocol: Volume of distribution at steady state in iv dosed Beagle dog after 24 hrs by LC-MS analysis
- Format: ADME, organism-based, Canis lupus familiaris
- Applied conditions: in vivo, read-out: Vdss
Property name: Vd (L/kg)

{"Smiles entry": "COC(=O)Nc1c(N)nc(-c2nn(Cc3ccccc3F)c3ncc(F)cc23)nc1N", "Property name": "Vd", "Assay result": 1.4}
{"Smiles entry": "COC(=O)Nc1c(N)nc(-n2nc(Cc3ccccc3F)c3ncc(F)cc32)nc1N", "Property name": "Vd", "Assay result": 1}
{"Smiles entry": "COC(=O)N(C)c1c(N)nc(-c2nn(Cc3ccccc3F)c3ncccc23)nc1N", "Property name": "Vd", "Assay result": 0.7}
{"Smiles entry": "COC(=O)Nc1c(N)nc(-c2nc(Cc3ccccc3F)n3ncccc23)nc1N", "Property name": "Vd", "Assay result": 2}
